target: Integrin alpha-V/beta-3 (Homo sapiens, UniProt P05106+P06756); assay: Inhibition of human integrin alphav beta3 receptor by biotinylated vitronectin competitive binding assay
measurement type: IC50 (nM)

(P) Nc1cc(C[C@H](NS(=O)(=O)c2cccc(C(F)(F)F)c2)C(=O)O)ccc1OCCCCc1ccc2c(n1)NCCC2
(Q) Nc1cc(C[C@H](NS(=O)(=O)c2cccc(C(F)(F)F)c2)C(=O)O)ccc1OCCCc1ccc2c(n1)NCCC2
(R) COCCOCCOCCOCC(=O)Nc1cc(C[C@H](NS(=O)(=O)c2cccc(C(F)(F)F)c2)C(=O)O)ccc1OCCCCNc1cc(C)ccn1
(S) Nc1cc(C[C@H](NS(=O)(=O)c2cccc(C(F)(F)F)c2)C(=O)O)ccc1OCCCN=C1NCCCN1
Put these in order: smallest IC50 first, largest last. Write out the labels following the order that was asked for.
Q, R, P, S
(Q: 0.1 nM, R: 0.5 nM, P: 1.1 nM, S: 3.9 nM)
